src = paper PMC8398714

Would you kindly list pIC50 for each of these compounds?
# procedure_summary: MTS cell viability assay on A-549 cells
# Format: cell-based
# stated_conditions: Homo sapiens; 48 h, 15-150 µM, mean ± SEM of triplicates
# Excerpt: Five tumor human cancer cell lines—cerebral astrocytoma (D-384), grade IV prostatic adenocarcinoma (PC-3), mammary adenocarcinoma (MCF-7), human colon carcinoma (RKO) and lung carcinoma (A-549)—along with one immortalized hamster cell line (CHO K-1) were used. […] The viable cells were counted using the trypan blue exclusion method in a hemocytometer. […]
Note on units: pIC50 is unitless, being -log10 of a concentration expressed in mol/L.

Notebook: COc1cccc2c1C(=O)c1c(O)c3c(c(O)c1C2=O)C[C@@](O)(C(=O)CO)C[C@@H]3O[C@H]1C[C@H](N)[C@H](O)[C@H](C)O1 [Dox, Doxorubicin, reference compound] , pIC50 read as 5.91

Notebook: CC1=NN(c2ccccc2)C(=O)[C@@]12C(c1ccc(C(F)(F)F)cc1)[C@@]21C(=O)N(c2ccccc2)N=C1C (relative stereo) , pIC50 read as 4.10

Notebook: COC(=O)c1ccc(C2[C@@]3(C(=O)N(c4ccccc4)N=C3C)[C@]23C(=O)N(c2ccccc2)N=C3C)cc1 (relative stereo) , pIC50 read as 4.07

Notebook: CC1=NN(c2ccccc2)C(=O)[C@@]12C(c1cccc([N+](=O)[O-])c1)[C@@]21C(=O)N(c2ccccc2)N=C1C (relative stereo) , pIC50 read as 4.02

Notebook: CC1=NN(c2ccccc2)C(=O)[C@@]12C(c1ccc([N+](=O)[O-])cc1)[C@@]21C(=O)N(c2ccccc2)N=C1C (relative stereo) , pIC50 read as 3.94

Notebook: CC1=NN(c2ccccc2)C(=O)[C@@]12C(c1ccc(OC(F)(F)F)cc1)[C@@]21C(=O)N(c2ccccc2)N=C1C (relative stereo) , pIC50 read as 4.11
